# ASSAYED TARGET: human ER-α (Homo sapiens, UniProt P03372)
# Construct: stably transfected with expression vectors for human full-length ER-α or ER-β; expressed in transfected cells
# Sequence (P03372 1-595): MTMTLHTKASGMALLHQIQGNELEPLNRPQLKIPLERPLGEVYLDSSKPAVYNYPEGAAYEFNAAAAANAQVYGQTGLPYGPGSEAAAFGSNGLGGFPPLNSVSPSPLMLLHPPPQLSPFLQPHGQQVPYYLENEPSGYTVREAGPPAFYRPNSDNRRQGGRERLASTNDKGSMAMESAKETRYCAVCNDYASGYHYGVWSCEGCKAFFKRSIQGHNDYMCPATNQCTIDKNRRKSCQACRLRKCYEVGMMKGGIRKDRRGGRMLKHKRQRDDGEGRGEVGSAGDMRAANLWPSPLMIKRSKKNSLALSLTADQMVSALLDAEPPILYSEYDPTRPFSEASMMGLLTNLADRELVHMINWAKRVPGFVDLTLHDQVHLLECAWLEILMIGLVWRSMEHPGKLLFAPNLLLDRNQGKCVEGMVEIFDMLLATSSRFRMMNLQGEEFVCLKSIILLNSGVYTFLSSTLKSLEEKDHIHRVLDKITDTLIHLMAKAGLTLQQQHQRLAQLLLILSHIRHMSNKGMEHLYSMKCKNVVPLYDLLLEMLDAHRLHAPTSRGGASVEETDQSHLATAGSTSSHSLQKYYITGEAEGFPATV
# PROTOCOL NOTES: Inhibition of IL-6 release from U-2 OS osteosarcoma cells stably transfected with human ER-α
# Type: cell-based
# EXPERIMENTAL SETUP: IL-6 production (ELISA) after 2.5 ng/ml TNFα and 1 ng/ml IL-1β stimulation, 24 h; compound 0.01–1000 nM; vehicle = 100%; read-out: IC50 (nM) U2 OS (ER-α)
# Description: Illustrative Benzopyranone Compounds were tested for their ability to inhibit IL-6 release from human U-2 OS osteosarcoma cells stably transfected with human ER-α or ER-β. […] Cells were plated into 96-well plates at a density of 80,000 cells per well in phenol red-free media with charcoal-stripped fetal calf serum. […] Twenty-four hours later the media supernatant was analyzed for cytokine production (IL-6) using commercially available ELISA kits following the manufacturer's instructions. […]
Classify: rule met when IC50 is strictly less than 7 nM; rule not met when IC50 is not.

                            chemical_string                            assayed_target  discrete_label
0  CC(=O)c1c(O)ccc2c(Cc3ccc(OCCN4CCCC4)cc3)c(-c3ccc(C(F)(F)F)cc3)c(=O)oc12  human ER-α (Homo sapiens, UniProt P03372)    rule not met
1  Cc1cc2c(Cc3ccc(OCCN4CCCC4)cc3)c(-c3ccc(C(F)(F)F)cc3)c(=O)oc2cc1O  human ER-α (Homo sapiens, UniProt P03372)    rule not met
2  Cc1c(O)ccc2c(Cc3ccc(OCCN4CCCC4)cc3)c(-c3ccc(Cl)cc3)c(=O)oc12  human ER-α (Homo sapiens, UniProt P03372)    rule not met
3  Cc1c(O)ccc2c(Cc3ccc(OCCN4CCCC4)cc3)c(-c3ccc(C(F)(F)F)cc3)c(=O)oc12  human ER-α (Homo sapiens, UniProt P03372)    rule not met
4  CC(=O)c1c(O)ccc2c(Cc3ccc(OCCN4CCCC4)cc3)c(-c3ccc(Cl)cc3Cl)c(=O)oc12  human ER-α (Homo sapiens, UniProt P03372)        rule met
5  Cc1cc2c(Cc3ccc(OCCN4CCCC4)cc3)c(-c3ccc(Cl)cc3Cl)c(=O)oc2cc1O  human ER-α (Homo sapiens, UniProt P03372)        rule met
6  N#Cc1c(O)ccc2c(Cc3ccc(OCCN4CCCC4)cc3)c(-c3ccc(C(F)(F)F)cc3)c(=O)oc12  human ER-α (Homo sapiens, UniProt P03372)    rule not met
